Molecular target: T1, soluble human erythropoietin receptor protein (huEpoR) (human) (UniProt P19235)
T1 sequence (looked up): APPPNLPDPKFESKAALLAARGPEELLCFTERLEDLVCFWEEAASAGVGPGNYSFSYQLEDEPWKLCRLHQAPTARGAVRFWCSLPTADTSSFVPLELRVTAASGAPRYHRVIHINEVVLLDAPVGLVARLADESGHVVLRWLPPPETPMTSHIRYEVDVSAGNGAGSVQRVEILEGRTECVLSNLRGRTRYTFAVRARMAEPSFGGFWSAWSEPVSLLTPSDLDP
Experiment: SPR, Biacore T100; scFv-Fc captured by anti-human IgG Fc on CM5 chip, EpoR as analyte
pKd: −log10 of the molar value.
Decide by pKd: equal to or exceeding 6 means satisfied, less means not satisfied.

Binder	Classification
clone 307 scFv-Fc protein (Fc fusion, part only; not given: scFv linker and IgG1 Fc, not shown: a dimerising Fc or GST) scFv, part: EVQLVESGGGLVQPGGSLRLSCAVSGFTFSKYWMTWVRQAPGKGLEWVANIKPDGSEKYYVESVKGRFTISRDNAKNSVYLQMNSVRAEDTAVYYCARVSRGGSFSDWGQGTMVTVSSQSVLTQPPSASGSPGQSVTISCTGTSSDVGGYNYVSWYQQHPDKAPRLMIYDVNKRPSGVPDRFSGSKSGNTASLTVSGLQAEDEAHYYCNSYAGSNNWVFGGGTQLTVL	satisfied
clone 295 scFv-Fc protein (Fc fusion, part only; not given: scFv linker and IgG1 Fc, not shown: a dimerising Fc or GST) scFv, part: EVQLVESGGGLVQPGGSLRLSCAASGFTFSSYAMSWVRQAPGKGLEWVSGISGSGSSEGGTYYADSVKGRFTLSRDNSKNTLYLQMNSLRAEDTALYYCVKDRPSRYSFGYYFDYWGRGTLVTVSSLPVLTQPPSVSVSPGQTASIACSGNKLGDKYVSWYQQKPGQSPLLVIYQDTKRPSGIPERFSGSNSGNTATLTISGTQAMDEADYYCQAWDSSTDVVFGGGTKLTVL	satisfied
clone 34 scFv-Fc protein (Fc fusion, part only; not given: Linker and IgG1 Fc, not shown: another chain or arm of the molecule; a dimerising Fc or GST; small tags and cut ends) VH: QVQLQQSGAEVKKPGASVKVSCKASGYTFSGYYMHWVRQAPGQGLEWMGWINPNSGSTNYAQKFLGRVTMTRDTSISTAYMELSSLRSDDTAVYYCARGHSGDYFDYWGQGTLVTVSA VL: EIVLTQSPSSLSASVGDRVTITCRASQSVSSWLAWYQQRPGQAPKLLIYAARLRGGGPSRFSGSGSGTEFTLTISSLQPEDFATYFCQQSYSTPISFGGGTKLEIK	satisfied
clone 201 scFv-Fc protein (Fc fusion, part only; not given: scFv linker and IgG1 Fc, not shown: a dimerising Fc or GST) scFv, part: QVQLQESGSGLARPSQTLSLTCAVSGGSISSSAFSWNWIRQPPGKGLEWIGYIYHTGITDYNPSLKSRVTISVDRSKNQFSLNVNSVTAADTAVYYCARGHGSDPAWFDPWGKGTLVTVSSQSVLTQPPSVSVSPGQTASITCSGDKLGDKYASWYQQRPGQSPVLVIYRDTKRPSGIPERFSGSNSGNTATLTISGTQAVDEADYYCQAWDSTTSLVFGGGTKLTVL	not satisfied
clone 16 scFv-Fc protein (Fc fusion, part only; not given: scFv linker and IgG1 Fc, not shown: a dimerising Fc or GST) scFv, part: QVQLQESGPGLVKPSETLSLTCTVSGGYINNYYWSWIRQPPGKGLEWIGYIHYSGSTYYNPSLKSRVTISEDTSKNQFSLKLSSATAADTAVYYCARVGYYYDSSGYNLAWYFDLWGRGTLVTVSASSELTQDPAVSVALGQTVRITCQGDNLRSYSATWYQQKPGQAPVLVLFGENNRPSGIPDRFSGSKSGDTAVLTITGTQTQDEADYYCTSRVNSGNHLGVFGPGTQLTVL	not satisfied
clone 330 scFv-Fc protein (Fc fusion, part only; not given: scFv linker and IgG1 Fc, not shown: a dimerising Fc or GST) scFv, part: EVQLVESGGGLVQPGGSLRLSCAVSGFTFSKYWMTWVRQAPGKGLEWVANIKPDGSEKYYVESVKGRFTISRDNAKNSVYLQMNSVRAEDTAVYYCARVSRGGSFSDWGQGTLVTVSSQSALTQPPSASGSPGQSVTISCTGTSSDVGAYNYVSWYQQHPGKAPKLMIYEVARRPSGVPDRFSGSKSGNTASLTVSGLQAEDEADYYCSSYAGSNNFAVFGRGTKLTVL	satisfied
clone 15 scFv-Fc protein (Fc fusion, part only; not given: scFv linker and IgG1 Fc, not shown: a dimerising Fc or GST) scFv, part: QVQLQESGPGLVRPSGTLSLTCAVSGGSIGSSNWWSWVRQAPGKGLEWIGEISQSGSTNYNPSLKGRVTISLDRSRNQLSLKLSSVTAADTAVYYCARQLRSIDAFDIWGPGTTVTVSASYVLTQPPSVSVSPGLTATITCSGDKLGDKYASWYQQKPGQSPVLVIYQDRKRPSGIPERFSGSNSGNTATLTISGTQAVDEADYYCQAWDSDTSYVFGTGTQLTVL	not satisfied
clone 319 scFv-Fc protein (Fc fusion, part only; not given: Linker and IgG1 Fc, not shown: another chain or arm of the molecule; a dimerising Fc or GST; small tags and cut ends) VH: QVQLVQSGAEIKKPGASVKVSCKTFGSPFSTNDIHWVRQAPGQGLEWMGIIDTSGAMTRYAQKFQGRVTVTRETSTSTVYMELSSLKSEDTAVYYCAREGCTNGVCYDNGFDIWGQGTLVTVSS VL: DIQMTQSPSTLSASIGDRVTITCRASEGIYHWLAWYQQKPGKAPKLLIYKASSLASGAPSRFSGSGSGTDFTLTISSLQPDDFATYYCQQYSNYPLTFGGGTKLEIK	satisfied

These entries and their values trace back to patent US20080124340A1.
